Test system: RARb homodimer (NR concentration 270 nM)
Experiment: PBM binding z-score (relative to random genomic background probes); higher = stronger binding; sequences stand for … in GC…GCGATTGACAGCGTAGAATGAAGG
Binary classification by PBM binding z-score, with 3 as an inclusive lower bound for Condition met; all other cases are Condition not met.

# Monomer Sequence, Assayed Target, Class Assignment
measured = [
    ("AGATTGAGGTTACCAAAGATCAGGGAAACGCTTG", "RARb homodimer (NR concentration 270 nM)", "Condition not met"),
]

Enquiry: Dear colleague, could you confirm whether ATATGTAGGTTAGGGTCATTCTGAAAGTAGGGAA has PBM binding z-score at or above 3?
Return: Condition met

Enquiry: Dear colleague, could you confirm whether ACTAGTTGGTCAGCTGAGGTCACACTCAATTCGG has PBM binding z-score at or above 3?
Return: Condition met

Enquiry: Dear colleague, could you confirm whether CCGAGTAGGCTACGAGGGGGCATTCAGTGCGAAT has PBM binding z-score at or above 3?
Return: Condition not met

Enquiry: Dear colleague, could you confirm whether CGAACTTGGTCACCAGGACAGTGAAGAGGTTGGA has PBM binding z-score at or above 3?
Return: Condition not met

Enquiry: Dear colleague, could you confirm whether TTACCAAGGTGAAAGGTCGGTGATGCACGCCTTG has PBM binding z-score at or above 3?
Return: Condition not met

Enquiry: Dear colleague, could you confirm whether CGAACTAGGTCACCAGGACAGTGAGGAGGTTGGA has PBM binding z-score at or above 3?
Return: Condition met
